This section presents compounds with their documented t/2 of PpIX fluorescence intensity values.
Test: Photobleaching inhibitory effect for porphyrins by each alkyl gallate in solution (Example 4)
Assay type: physicochemical
Conditions: DMSO; 50 mM alkyl gallate, 1 μM PpIX; excitation 402 nm, 0.4 mA; fluorescence 632 nm; pseudo-first-order
readoutName: t/2 of PpIX fluorescence intensity

CCCCOC(=O)c1cc(O)c(O)c(O)c1 [BuG, butyl gallate] : 533.2 s
CCCCCCCCOC(=O)c1cc(O)c(O)c(O)c1 [OcG, octyl gallate] : 239.0 s
COC(=O)c1cc(O)c(O)c(O)c1 [MeG, Methyl gallate] : 239.0 s
CCCOC(=O)c1cc(O)c(O)c(O)c1 [NPG, n-propyl gallate] : 231.0 s
